Test Protocol: Apparent permeability across apical to basal side in human Caco-2 cells
Format: ADME, cell-based
Papp A→B for assorted compounds
Your answer is read as ×10⁻⁶ cm/s, so omit the unit and give the number.

Cn1cc(-c2ccc(F)c(C(F)(F)F)c2)nc1C1CCN(c2ncnc(N)c2-c2ccc(F)cc2)CC1	1.9

Moving on to another compound below.
According to the records, this compound "NC(=O)c1c(N)ncnc1N1CCC(c2nc(-c3ccc(F)c(C(F)(F)F)c3)cn2CCN2CCC2)CC1" displays Papp A→B of 5.3

###

Test Protocol: AUC in Beagle dog at 0.5 mg/kg, po
Assay type: ADME, organism-based, Canis lupus familiaris
Design: dose 0.5 mg/kg
Conditions: in vivo
Experimental Readout: AUC (ng·h/mL)
Number only, in ng·h/mL; omit the unit.

// field: AUC; key: "NC(=O)c1c(N)ncnc1N1CCC(c2nc(-c3ccc(F)c(C(F)(F)F)c3)cn2CCN2CCC2)CC1" ; value = 2370
